- Tgt: human CMV DNA polymerase UL54 (Human cytomegalovirus (strain AD169) (HHV-5) (Human herpesvirus 5), UniProt P08546)
- Assay info: CMV polymerase biochemical assay (molecular beacon-based)
Listing of recorded pIC50 by entry.
# pIC50 = -log10(concentration in molar units)

N#Cc1ccc(CNC(=O)c2ccc3n(c2=O)CCN(CC2(S(=O)(=O)C4CC4)CC2)C3=O)cc1; 9.10

Return value of pIC50 for input "N#Cc1ccc(CNC(=O)c2ccc3n(c2=O)CCN(CC2(S(=O)(=O)N4CCC4)CC2)C3=O)cc1F" , no commentary.
8.70

Return value of pIC50 for input "N#Cc1ccc(CNC(=O)c2ccc3n(c2=O)CCN(CC2(S(=O)(=O)C4(F)CC4)CC2)C3=O)cc1F" , no commentary.
8.72

Return value of pIC50 for input "CC(C)(CN)S(=O)(=O)C1(CN2CCn3c(ccc(C(=O)NCc4ccc(C#N)cc4)c3=O)C2=O)CC1" , no commentary.
8.41

---

- Tgt: human HSV DNA polymerase UL30 (Human herpesvirus 1 (strain 17) (HHV-1) (Human herpes simplex virus 1), UniProt P04293)
- Assay info: HSV polymerase biochemical assay (molecular beacon-based)
Experimental endpoint: pIC50
# pIC50 = -log10(concentration in molar units)

Completed entries (count: 2):
O=C(NCc1ccc(Cl)cc1)c1ccc2n(c1=O)CCN(CC1(NS(=O)(=O)C3CC3)CC1)C2=O; 5.59
O=C(NCc1ccc(Cl)cc1)c1ccc2n(c1=O)CCN(CC1(S(=O)(=O)C3CC3)CC1)C2=O; 7.81

Return value of pIC50 for input "O=C(NCc1ccc(Cl)cc1)c1ccc2n(c1=O)CCN(CC1(C(=O)N3CCCC3)CC1)C2=O" , no commentary.
6.37

Return value of pIC50 for input "CS(=O)(=O)C1(CN2CCn3c(ccc(C(=O)NCc4ccc(F)cc4)c3=O)C2=O)CC1" , no commentary.
6.41

---

- Tgt: human CMV DNA polymerase UL54 (Human cytomegalovirus (strain AD169) (HHV-5) (Human herpesvirus 5))
- Assay info: CMV polymerase biochemical assay (molecular beacon-based)
Listing of recorded IC50 by entry.
Write the number in nM without appending the unit.

Completed entries (count: 6):
N#Cc1ccc(CNC(=O)c2ccc3n(c2=O)CCN(CC2(S(=O)(=O)C4(CO)CC4)CC2)C3=O)cc1; 0.4
C[S+]([O-])C1(CN2CCn3c(ccc(C(=O)NCc4ccc(C#N)cc4)c3=O)C2=O)CC1 (centres unmarked); 146
CS(=O)(=O)N1CC(CN2CCn3c(ccc(C(=O)NCc4ccc(Cl)cc4)c3=O)C2=O)C1; 614
CC(CN1CCn2c(ccc(C(=O)NCc3ccc(Cl)cc3)c2=O)C1=O)S(=O)(=O)C1CC1 (centres unmarked); 76.5
C[C@@H](CCO)S(=O)(=O)C1(CN2CCn3c(ccc(C(=O)NCc4ccc(Cl)cc4)c3=O)C2=O)CC1 (single isomer, unassigned); 1
N#Cc1ccc(CNC(=O)c2ccc3n(c2=O)CCN(CC2(S(=O)(=O)CC4(C(F)(F)F)CC4)CC2)C3=O)cc1; 24.3

Now let's try a different one.
Return value of IC50 for input "CN1CCn2c(ccc(C(=O)NCc3ccc(Cl)cc3)c2=O)C1=O" , no commentary.
3990

---

- Tgt: human CMV DNA polymerase UL54 (Human cytomegalovirus (strain AD169) (HHV-5) (Human herpesvirus 5))
- Assay info: CMV polymerase biochemical assay (molecular beacon-based)
pIC50: −log10 of the molar value.
Class membership depends on pIC50 alone; the intervals are low: < 8; medium: ≥ 8 and < 9; high: ≥ 9

These solved cases illustrate the format of a correct answer.
CN1CCC(S(=O)(=O)C2(CN3CCn4c(ccc(C(=O)NCc5ccc(C#N)cc5)c4=O)C3=O)CC2)C1 (stereo not drawn) [Example 81-4]; low
N#Cc1ccc(CNC(=O)c2ccc3n(c2=O)CCN(CC2(S(=O)(=O)C4CNC4)CC2)C3=O)cc1 [Example 18]; medium
N#Cc1ccc(CNC(=O)c2ccc3n(c2=O)CCN(CC2(S(=O)(=O)C4CCNC4)CC2)C3=O)cc1F (stereo not drawn) [Example 81-1]; medium
CN(CCN1CCn2c(c(CF)cc(C(=O)NCc3ccc(Cl)cc3)c2=O)C1=O)S(C)(=O)=O [Example 140]; low
N#Cc1ccc(CNC(=O)c2ccc3n(c2=O)CCN(CC2(S(=O)(=O)C4(C(F)(F)F)CC4)CC2)C3=O)cc1F [Example 97-2]; medium

Now take the following compound into account.
Categorize the following entry: CN(C)C(=O)OC1(CN2CCn3c(ccc(C(=O)NCc4ccc(Cl)cc4)c3=O)C2=O)CC1 [Example 172]
low
